Recorded values, source paper PMC12084609.

Target: C3aR L82^2.64A (Homo sapiens, UniProt Q16581, L82A)
Construct: expressed in transfected cells; host or cells: HEK293T
Sequence (Q16581 1-482 L82A): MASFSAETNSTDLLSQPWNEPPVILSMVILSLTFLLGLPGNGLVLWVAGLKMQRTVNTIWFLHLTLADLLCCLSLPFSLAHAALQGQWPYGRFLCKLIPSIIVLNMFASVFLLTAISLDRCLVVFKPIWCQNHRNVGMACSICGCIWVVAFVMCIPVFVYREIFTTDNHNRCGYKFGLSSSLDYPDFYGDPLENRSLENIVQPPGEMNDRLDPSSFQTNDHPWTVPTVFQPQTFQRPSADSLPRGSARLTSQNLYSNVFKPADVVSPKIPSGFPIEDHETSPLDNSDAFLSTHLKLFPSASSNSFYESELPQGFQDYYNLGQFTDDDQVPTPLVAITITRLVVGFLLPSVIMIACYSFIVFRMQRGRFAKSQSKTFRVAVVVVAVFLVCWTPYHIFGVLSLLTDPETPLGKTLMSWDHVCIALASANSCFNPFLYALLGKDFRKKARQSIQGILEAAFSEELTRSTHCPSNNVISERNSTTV
Test: GloSensor-based cAMP assay, C3aR mutant L82A
Type: cell-based
Conditions: pIC50 ± SEM (Mean), L82^2.64A; mean of independent experiments
experimentalReadout: IC50 (nM)
Quick note: give the figure in nM, leave out the unit.

Cc1cc(C(c2ccc(Cl)cc2)c2ccc(Cl)cc2)sc1C(=O)N[C@@H](CCCNC(=N)N)C(=O)O [JR14a, reference compound] has a reported IC50 of 2.04

----------
Target: C3aR I98^3.28A (Homo sapiens, UniProt Q16581, I98A)
Construct: expressed in transfected cells; host or cells: HEK293T
Sequence (Q16581 1-482 I98A): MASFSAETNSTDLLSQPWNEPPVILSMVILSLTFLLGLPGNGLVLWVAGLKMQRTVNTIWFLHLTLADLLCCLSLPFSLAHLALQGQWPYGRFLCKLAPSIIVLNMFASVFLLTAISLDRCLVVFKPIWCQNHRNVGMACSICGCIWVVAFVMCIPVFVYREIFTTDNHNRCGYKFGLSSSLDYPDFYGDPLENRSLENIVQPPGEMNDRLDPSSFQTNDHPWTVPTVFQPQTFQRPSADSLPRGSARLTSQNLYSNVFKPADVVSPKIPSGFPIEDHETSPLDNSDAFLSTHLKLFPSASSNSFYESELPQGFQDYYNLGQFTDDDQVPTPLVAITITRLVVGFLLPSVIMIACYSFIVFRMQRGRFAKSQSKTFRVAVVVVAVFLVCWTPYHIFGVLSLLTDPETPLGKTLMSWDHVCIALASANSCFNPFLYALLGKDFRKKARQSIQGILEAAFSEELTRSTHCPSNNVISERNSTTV
Test: GloSensor-based cAMP assay, C3aR mutant I98A
Assay type: cell-based
Conditions: IC50, I98^3.28A; dose-response plot
experimentalReadout: IC50 (nM)
Quick note: give the figure in nM, leave out the unit.

Cc1cc(C(c2ccc(Cl)cc2)c2ccc(Cl)cc2)sc1C(=O)N[C@@H](CCCNC(=N)N)C(=O)O [JR14a, reference compound] has a reported IC50 of 9.13
